Hey, just so you know, these numbers are from patent US9856240B2.

- tested on: recombinant human STIM1 and Orai1 (HEK-293 cells) (Homo sapiens, UniProt Q96D31)
- Sequence (Q96D31 whole entry): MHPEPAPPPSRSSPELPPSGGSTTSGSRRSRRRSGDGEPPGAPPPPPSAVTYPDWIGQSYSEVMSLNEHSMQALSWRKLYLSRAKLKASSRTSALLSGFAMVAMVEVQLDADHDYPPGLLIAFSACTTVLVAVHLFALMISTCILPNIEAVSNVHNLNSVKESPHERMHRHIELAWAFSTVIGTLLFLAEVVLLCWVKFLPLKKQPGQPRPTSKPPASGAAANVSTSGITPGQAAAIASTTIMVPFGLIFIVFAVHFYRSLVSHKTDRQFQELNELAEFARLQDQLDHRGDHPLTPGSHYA
- measurement protocol: Fluorescence-based assay of store-operated calcium entry in Orai1/STIM1 stable cells
- particulars: FLIPR fluo-4, read-out: Orai1/STIM1 (IC50, μmol)
observed property: IC50

Record summary for Cc1noc(C)c1C(=O)Nc1ccc(-c2cc3c(cc2Cl)OC(F)(F)O3)cn1 [Example 11] : reported IC50 = < 600 nM

Record summary for Cc1onc(C(=O)Nc2cnc(-c3cc4c(cc3Cl)OC(F)(F)O4)cn2)c1C [Example 25] : reported IC50 = 600 to 1200 nM

Record summary for Cn1nc(C(F)(F)F)cc1-c1cnc(NC(=O)c2c(Cl)cnn2C)cn1 [Example 39] : reported IC50 = > 1200 nM

Record summary for Cn1ncc(Cl)c1C(=O)Nc1ccc(-c2cc3c(cc2Cl)OC(F)(F)O3)cn1 [Example 9] : reported IC50 = 600 to 1200 nM

Record summary for CCn1nccc1C(=O)Nc1cnc(-c2cc3c(cc2Cl)OC(F)(F)O3)cn1 [Example 32] : reported IC50 = < 600 nM

Record summary for Cc1nocc1C(=O)Nc1ccc(-c2cc3c(cc2Cl)OC(F)(F)O3)cn1 [Example 18] : reported IC50 = < 600 nM

Record summary for Cc1nscc1C(=O)Nc1ccc(-c2cc3c(cc2Cl)OC(F)(F)O3)cn1 [Example 15] : reported IC50 = < 600 nM

Record summary for Cc1nc(C(F)(F)F)c(C(=O)Nc2ccc(-c3cc4c(cc3Cl)OC(F)(F)O4)cn2)s1 [Example 17] : reported IC50 = > 1200 nM

Record summary for Cn1ncc(Cl)c1C(=O)Nc1cnc(-c2cc3c(cc2Cl)OC(F)(F)O3)cn1 [Example 29] : reported IC50 = < 600 nM

Record summary for Cc1nn(C)c(C(=O)Nc2ccc(-c3cc4c(cc3Cl)OC(F)(F)O4)cn2)c1Cl [Example 2] : reported IC50 = > 1200 nM

Record summary for Cc1nn(C)c(C(=O)Nc2cnc(-c3cc(C(F)(F)F)nn3C)cn2)c1Cl [Example 40] : reported IC50 = > 1200 nM

Record summary for Cn1cccc1C(=O)Nc1ccc(-c2cc3c(cc2Cl)OC(F)(F)O3)cn1 [Example 1] : reported IC50 = 600 to 1200 nM

Record summary for Cc1cnoc1C(=O)Nc1ccc(-c2cc3c(cc2Cl)OC(F)(F)O3)cn1 [Example 20] : reported IC50 = < 600 nM

Record summary for Cn1cc(Cl)c(C(=O)Nc2ccc(-c3cc4c(cc3Cl)OC(F)(F)O4)cn2)n1 [Example 8] : reported IC50 = > 1200 nM

Record summary for Cc1cc2c(cc1-c1cnc(NC(=O)c3c(Cl)cnn3C)cn1)OC(F)(F)O2 [Example 35] : reported IC50 = < 600 nM

Record summary for Cc1noc(C)c1C(=O)Nc1cnc(-c2cc3c(cc2Cl)OC(F)(F)O3)cn1 [Example 31] : reported IC50 = 600 to 1200 nM

Record summary for Cc1cc2c(cc1-c1cnc(NC(=O)c3c(C)noc3C)cn1)OC(F)(F)O2 [Example 38] : reported IC50 = > 1200 nM
